Each record here notes measured koff.
# tested_target: T1, cynoSIRPα (XP_015313155), Extracellular Domain + His-Tag (cynomolgus monkey)
# T1 construct: also called CySIRPα XP_015313155; not shown: His-Tag
# T1 chain: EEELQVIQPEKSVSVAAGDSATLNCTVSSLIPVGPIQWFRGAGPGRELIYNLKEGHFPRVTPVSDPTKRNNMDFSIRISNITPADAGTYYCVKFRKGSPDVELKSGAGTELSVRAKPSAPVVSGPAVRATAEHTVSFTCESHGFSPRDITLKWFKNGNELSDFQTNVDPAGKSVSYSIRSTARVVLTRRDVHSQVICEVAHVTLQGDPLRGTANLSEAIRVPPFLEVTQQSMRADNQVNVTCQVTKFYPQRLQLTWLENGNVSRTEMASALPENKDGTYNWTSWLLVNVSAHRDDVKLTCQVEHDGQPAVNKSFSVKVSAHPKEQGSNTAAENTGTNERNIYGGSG
# test_description: SPR, antibody captured on Protein A/G, ECD-His analyte, 1:1 fit
Answer format: numeric, s⁻¹ implied, no suffix.

binder	koff / s⁻¹
Antibody E11 (antibody, human IgG1, kappa, L234A L235A, V domains shown) VH: QVQLQESGPGLVRPSETLSLTCTVSGGSIRNYYWSWIRQPPGKGLEWMGFIYDNGRTFYNPSLKSRVTISLDMSMNQFSLKMTSVTAADTAVYYCARVRAYSGIGLDGTDVWGQGTTVTVSS VL: DIVMTQSPLSLPVTPGEPASISCKSSQSLLYSNGYAYLDWYLQRPGQSPQLLIYLGSNRASGVPDRFSGSGSGTDFTLKISRVEAEDVGVYYCMQALQTPLTFGGGTKVEIKR	0.00549

Lab note: next binder to report on.
Field koff (entry Antibody E7 (antibody, human IgG1, kappa, L234A L235A, V domains shown) VH: QVQLQESGPGLVRPSETLSLTCTVSGGSIRNYYWSWIRQPPGKGLEWIGFIYYNGRTFYNPSLKSRVTISLDTSKNQFSLKMTSVTAADTAVYYCARVRAYSGIGLDGTDVWGQGTTVTVSS VL: DIVMTQSPLSLPVTPGEPASISCKSSQSLLYSNGYAYLDWYLQRPGQSPQLLIYQGSNRASGVPDRFSGSGSGTDFTLKISRVEAEDVGVFYCMQALQTPLTFGGGTKVEIKR ) reads 0.00337
